tested on: CCRF-CEM; experiment: Resistance factor, ratio of IC50 for vinblastine-resistant human CCRF-CEM cells to IC50 for human CCRF-CEM cells; format: functional
measured-attribute: Ratio IC50

>>> readout_number("CCN(CC)CCC(=O)Nc1cccc(NC(=O)Nc2ccc(N(CCCl)CCCl)cc2)c1")
15.62
>>> readout_number("O=C(CCN1CCC(N2CCCCC2)CC1)Nc1ccc(NC(=O)Nc2ccc(N(CCCl)CCCl)cc2)cc1")
166.17
>>> readout_number("O=C(CCN1CCCC1)Nc1ccc(NC(=O)Nc2ccc(N(CCCl)CCCl)cc2)cc1")
61.14
>>> readout_number("CN(C)CCNC(=O)c1ccc(NC(=O)Nc2ccc(N(CCCl)CCCl)cc2)cc1")
186.47

* * *

assay: Oral bioavailability in Sprague-Dawley rat at 50 mg/kg; format: ADME, organism-based; conditions: in vivo
measured-attribute: bioavailability (%)

>>> readout_number("CCN(CC)CC(=O)Nc1ccc(NC(=O)Nc2ccc(N(CCCl)CCCl)cc2)cc1")
5.32

* * *

experiment: Cytotoxicity against human HCT116 cells assessed as growth inhibition after 72 hrs by Alamar Blue assay; format: functional, cell-based; details: HCT-116, 72 h
pIC50: −log10 of the molar value.
# pIC50 per entry
measured-attribute: pIC50

>>> readout_number("CN(C)CCNC(=O)c1ccc(NC(=O)Nc2ccc(N(CCCl)CCCl)cc2)cc1")
5.25
>>> readout_number("O=C(Nc1ccc(C(=O)NCCN2CCCC2)cc1)Nc1ccc(N(CCCl)CCCl)cc1")
5.19
>>> readout_number("CCN(CC)CC(=O)Nc1cccc(NC(=O)Nc2ccc(N(CCCl)CCCl)cc2)c1")
5.34
>>> readout_number("O=C(CN1CCCCC1)Nc1cccc(NC(=O)Nc2ccc(N(CCCl)CCCl)cc2)c1")
5.12
>>> readout_number("O=C(Nc1ccc(C(=O)NCCN2CCCCC2)cc1)Nc1ccc(N(CCCl)CCCl)cc1")
5.28
>>> readout_number("O=C(CN1CCOCC1)Nc1cccc(NC(=O)Nc2ccc(N(CCCl)CCCl)cc2)c1")
4.89
>>> readout_number("O=C(CCN1CCOCC1)Nc1cccc(NC(=O)Nc2ccc(N(CCCl)CCCl)cc2)c1")
4.78
>>> readout_number("O=C(CCN1CCOCC1)Nc1ccc(NC(=O)Nc2ccc(N(CCCl)CCCl)cc2)cc1")
5.15
>>> readout_number("O=C(CN1CCCC1)Nc1cccc(NC(=O)Nc2ccc(N(CCCl)CCCl)cc2)c1")
5.27
